Data provenance: patent US20240327412A1

Entries and their IC50
Subject Of Test: FXa (Homo sapiens, UniProt P00742)
Sequence (P00742 235-488 limits assumed): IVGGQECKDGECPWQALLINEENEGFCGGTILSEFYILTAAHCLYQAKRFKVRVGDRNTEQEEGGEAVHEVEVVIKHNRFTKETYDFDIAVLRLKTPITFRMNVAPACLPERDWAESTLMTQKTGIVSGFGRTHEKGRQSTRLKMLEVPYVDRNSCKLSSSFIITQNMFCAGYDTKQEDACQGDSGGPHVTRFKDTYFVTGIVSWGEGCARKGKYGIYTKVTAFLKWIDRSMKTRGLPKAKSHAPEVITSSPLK
Sequence (P00742 41-179 partner limits assumed): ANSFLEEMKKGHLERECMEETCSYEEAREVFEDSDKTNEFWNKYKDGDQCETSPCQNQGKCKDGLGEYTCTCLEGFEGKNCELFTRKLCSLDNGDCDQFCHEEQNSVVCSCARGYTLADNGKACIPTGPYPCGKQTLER
Recorded Endpoint: IC50

> print(dat)
                                   compound  reported.value
1  Clc1cccc(NCC23CC(COc4ccn5ccnc5c4)(CCO2)C3)c1 [Example 10919]         > 40 µM
2  Nc1nccc2c(NCC34CC(C(=O)N5CCn6ccnc6C5)(C3)C4)cccc12 [Example 1016]         > 40 µM
3  Cn1ccc(OCC23CN(C(=O)NCc4ccccc4)C(CNc4cccc5c(N)nccc45)(C2)C3)cc1=O [Example 12017]     10 to 40 µM
4  CN1Cc2ccc(OCC34CC(CNc5cccc6c(N)nccc56)(CO3)C4)cc2C1=O [Example 2211]         > 40 µM
5  Nc1nccc2c(NCC34CC(COc5ccc6nccn6c5)(CO3)C4)cccc12 [Example 6602]     10 to 40 µM
6  Nc1nccc2c(NCC34CC(COc5ccn6ccnc6n5)(CO3)C4)cccc12 [Example 6614]         > 40 µM
7  Cn1ccc(OCC23CCOC(CNc4cccc5c(N)nccc45)(C2)C3)cc1=O [Example 10906]         > 40 µM
8  c1cc2cc(NCC34CC(COc5ccn6ccnc6c5)(C3)C4)ccc2cn1 [Example 1011]       1 to 3 µM

* * *

Subject Of Test: Trypsin (Homo sapiens, UniProt P07477)
pIC50: −log10 of the molar value.
Entries and their pIC50
Recorded Endpoint: pIC50

> print(dat)
                                   compound  reported.value
1  Nc1nccc2c(NCC34CC(COc5ccn6cnnc6c5)(CO3)C4)cccc12 [Example 6629]    4.40 to 5.00
2  CN1Cc2cc(OCC34COC(CNc5cccc6c(N)nccc56)(C3)C4)ccc2C1=O [Example 6621]          < 4.40
3  Cc1cnc2ccc(OCC34COC(CNc5cccc6c(N)nccc56)(C3)C4)cn12 [Example 6624]    4.40 to 5.00
4  Cn1ccc(OCC23CCOC(CNc4cccc5c(N)nccc45)(C2)C3)nc1=O [Example 10940]    4.40 to 5.00

* * *

Subject Of Test: Human Factor XIIa (Homo sapiens)
Construct: Proteolytic cleavage of FXII to heavy and light chains of FXIIa dramatically increases catalytic activity; purchased Enzyme Research Laboratories
Sequence (P00748 373-615 limits assumed): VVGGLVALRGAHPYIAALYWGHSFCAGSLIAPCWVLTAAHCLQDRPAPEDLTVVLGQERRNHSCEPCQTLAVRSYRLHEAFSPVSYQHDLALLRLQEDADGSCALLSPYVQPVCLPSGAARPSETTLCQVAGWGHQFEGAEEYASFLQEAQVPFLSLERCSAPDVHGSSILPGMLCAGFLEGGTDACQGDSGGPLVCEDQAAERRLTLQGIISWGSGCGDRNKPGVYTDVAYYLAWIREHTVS
Sequence (P00748 20-372 partner limits assumed): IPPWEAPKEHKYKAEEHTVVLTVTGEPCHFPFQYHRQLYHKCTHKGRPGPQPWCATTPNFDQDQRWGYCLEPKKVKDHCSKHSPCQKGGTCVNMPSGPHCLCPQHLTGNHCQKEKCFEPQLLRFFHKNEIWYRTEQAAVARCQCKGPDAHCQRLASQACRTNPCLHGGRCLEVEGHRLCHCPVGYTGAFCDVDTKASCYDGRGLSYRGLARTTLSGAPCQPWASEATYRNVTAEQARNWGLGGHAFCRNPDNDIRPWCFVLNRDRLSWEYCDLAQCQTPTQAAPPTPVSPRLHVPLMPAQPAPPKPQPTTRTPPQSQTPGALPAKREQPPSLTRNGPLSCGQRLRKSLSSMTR
Assay Comment: Determination of FXIIa inhibition (fluorogenic substrate H-DPro-Phe-Arg-AFC, IC50 assay)
Type: biochemical
Condition: substrate at Km concentration, 25° C.; category scale; read-out: Human FXII IC50 (nm)
Entries and their IC50
Recorded Endpoint: IC50

> print(dat)
                                    compound  recorded.endpoint     reported.value
 1  COC(=O)N1CC2(COc3ccn(C)c(=O)c3)CC1(CNc1ccc3c(N)nccc3c1)C2               IC50     300 to 1000 nM
 2  Cn1ccc(OCC23CN(C(=O)OCc4ccccc4)C(CNc4ccc5c(N)nccc5c4)(C2)C3)cc1=O               IC50      100 to 300 nM
 3  Cn1cc(COC(=O)N2CC3(CNc4cccc5c(N)nccc45)CC2(COc2ccn(C)c(=O)c2)C3)cn1               IC50       10 to 100 nM
 4  Nc1nccc2c(N3CCC4(CC(OCc5ccn6ccnc6c5)C4)C3)cccc12 (stereo not drawn) [Example 8804]               IC50    1000 to 3000 nM
 5  Nc1nccc2c(NCC34CC(COc5cnc6cc[nH]c6c5)(C3)C4)cccc12               IC50   3000 to 10000 nM
 6  Nc1nccc2c(NCC34CC(CN5C(=O)c6ccc(O)cc6C5=O)(CO3)C4)cccc12               IC50  10000 to 40000 nM
 7  Nc1nccc2c(NCC34COC(COc5ccc6ncnn6c5)(C3)C4)cccc12               IC50    1000 to 3000 nM
 8  Cc1cnc2ccc(OCC34COC(CNc5cccnc5)(C3)C4)cn12               IC50  10000 to 40000 nM
 9  c1cc2cc(NCC34CC(COc5ccn6ccnc6c5)(CCO3)C4)ccc2cn1               IC50  10000 to 40000 nM
10  Cn1ccc(OCC23CC(CNc4cccc5c(N)nccc45)(CN2C(=O)NCc2ccccc2)C3)cc1=O               IC50       10 to 100 nM
11  Nc1nccc2c(N3CC4(CCC4OCc4ccn5ccnc5c4)C3)cccc12 (single isomer, unassigned) [Example 9003]               IC50  10000 to 40000 nM
12  Nc1nccc2c(CCC34CC(COc5ccn6ccnc6c5)(C3)C4)cccc12               IC50    1000 to 3000 nM
13  CN1CCc2cc(OCC34COC(CNc5cccc6c(N)nccc56)(C3)C4)ccc2C1=O               IC50      100 to 300 nM
14  COc1ccccc1CNC(=O)N1CC2(COc3ccn(C)c(=O)c3)CC1(CNc1cccc3c(N)nccc13)C2               IC50       10 to 100 nM
15  CN(Cc1ccccc1)C(=O)N1CC2(CNc3cccc4c(N)nccc34)CC1(COc1ccn(C)c(=O)c1)C2               IC50     300 to 1000 nM

* * *

Subject Of Test: Plasma Kallikrein (Homo sapiens, UniProt P03952)
Construct: FXIIa converts plasma prekallikrein (PK) to plasma kallikrein (PKa)
Sequence (P03952 391-638 limits assumed): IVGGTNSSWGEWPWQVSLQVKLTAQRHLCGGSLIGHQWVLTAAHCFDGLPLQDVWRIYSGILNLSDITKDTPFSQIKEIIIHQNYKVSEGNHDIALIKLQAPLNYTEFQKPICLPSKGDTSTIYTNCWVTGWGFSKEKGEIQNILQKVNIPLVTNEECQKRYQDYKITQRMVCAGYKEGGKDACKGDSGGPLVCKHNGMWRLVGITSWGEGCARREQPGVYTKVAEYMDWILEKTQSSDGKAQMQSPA
Sequence (P03952 20-390 partner limits assumed): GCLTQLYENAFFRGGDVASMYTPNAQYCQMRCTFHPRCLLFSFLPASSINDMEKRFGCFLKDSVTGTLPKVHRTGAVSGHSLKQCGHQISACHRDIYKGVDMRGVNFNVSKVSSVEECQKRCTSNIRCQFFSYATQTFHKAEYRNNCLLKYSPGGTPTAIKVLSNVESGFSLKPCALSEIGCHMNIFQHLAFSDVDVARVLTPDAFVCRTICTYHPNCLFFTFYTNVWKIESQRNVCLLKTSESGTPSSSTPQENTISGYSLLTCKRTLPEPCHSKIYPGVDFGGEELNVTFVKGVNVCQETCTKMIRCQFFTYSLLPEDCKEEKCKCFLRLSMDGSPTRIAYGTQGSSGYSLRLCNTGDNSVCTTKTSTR
Assay Comment: Related protease inhibition: Plasma Kallikrein (fluorogenic substrate at Km)
Condition: class symbols per Table 18, read-out: IC50 (human PKal)
pIC50: −log10 of the molar value.
Entries and their pIC50
Recorded Endpoint: pIC50

> print(dat)
                                    molecule                           subject.of.test  reported.value
 1  Nc1nccc2c(NCC34CC(COC5CCc6nccn6C5)(CO3)C4)cccc12 (stereo not drawn) [Example 6610]  Plasma Kallikrein (Homo sapiens, UniProt P03952)          < 4.40
 2  Nc1nccc2c(NCC34CC(COc5ccc6cn[nH]c6c5)(C3)C4)cccc12 [Example 1125]  Plasma Kallikrein (Homo sapiens, UniProt P03952)          < 4.40
 3  Clc1ccc(NCC23CC(COc4ccn5ccnc5c4)(CCO2)C3)cc1 [Example 10918]  Plasma Kallikrein (Homo sapiens, UniProt P03952)          < 4.40
 4  Nc1nccc2c(NCC34COC(COc5ccc6nnc(C(F)F)n6n5)(C3)C4)cccc12 [Example 2204]  Plasma Kallikrein (Homo sapiens, UniProt P03952)          < 4.40
 5  Cc1cc2c(NCC34CC(COc5ccn6ccnc6c5)(C3)C4)ccnc2[nH]1 [Example 1012]  Plasma Kallikrein (Homo sapiens, UniProt P03952)          < 4.00
 6  Nc1nccc2c(N3CC4(CCC4OCc4ccn5ccnc5c4)C3)cccc12 (single isomer, unassigned) [Example 9003]  Plasma Kallikrein (Homo sapiens, UniProt P03952)          < 4.40
 7  Cn1cccc(OCC23CCOC(CNc4cccc5c(N)nccc45)(C2)C3)c1=O [Example 10911]  Plasma Kallikrein (Homo sapiens, UniProt P03952)          < 4.40
 8  Nc1nccc2c(NCC34CC(COc5ccn6ccnc6c5)(CCO3)C4)cccc12 [Example 10901]  Plasma Kallikrein (Homo sapiens, UniProt P03952)          < 4.40
 9  Clc1cccc(NCC23CC(COc4ccn5ccnc5c4)(CCO2)C3)c1 [Example 10919]  Plasma Kallikrein (Homo sapiens, UniProt P03952)          < 4.40
10  Clc1c[nH]c2ncc(NCC34CC(COc5ccn6ccnc6c5)(C3)C4)cc12 [Example 1129]  Plasma Kallikrein (Homo sapiens, UniProt P03952)          < 4.00
11  c1cc(NCC23CC(COc4ccn5ccnc5c4)(C2)C3)c2cc[nH]c2n1 [Example 1009]  Plasma Kallikrein (Homo sapiens, UniProt P03952)          < 4.00
12  Cc1cc2c(NCC34CC(COc5ccn6ccnc6c5)(CO3)C4)ccnc2[nH]1 [Example 6605]  Plasma Kallikrein (Homo sapiens, UniProt P03952)          < 4.40
13  Nc1nccc2c(N3CC4(CCC4OCc4ccn5ccnc5c4)C3)cccc12 (single isomer, unassigned) [Example 9002]  Plasma Kallikrein (Homo sapiens, UniProt P03952)          < 4.40
14  Nc1nccc2c(N3CC4(CC(COc5ccc6nccn6c5)C4)C3)cccc12 [Example 8808]  Plasma Kallikrein (Homo sapiens, UniProt P03952)          < 4.40
15  Cn1ccc(OCC23CC(CNc4cccc5c(N)nccc45)(CCO2)C3)cc1=O [Example 11001]  Plasma Kallikrein (Homo sapiens, UniProt P03952)          < 4.40
16  Nc1nccc2c(OCC34CC(COc5ccn6ccnc6c5)(C3)C4)cccc12 [Example 1013]  Plasma Kallikrein (Homo sapiens, UniProt P03952)          < 4.40
17  Nc1nccc2c(NCC34CC(COc5ccn6ccnc6n5)(CO3)C4)cccc12 [Example 6614]  Plasma Kallikrein (Homo sapiens, UniProt P03952)          < 5.40
18  Nc1nccc2c(NCC34COC(COc5ccc6nccn6c5)(C3)C4)cccc12 [Example 2022]  Plasma Kallikrein (Homo sapiens, UniProt P03952)          < 4.40
